In this section we review reported protein stability index values for a set of variants.
B1: SFRS1 (parent)
chain: YSPRRSRGSPRYSPRHSRSRSRT

- Variants of: B1
- EXPERIMENTAL_DETAILS: protein stability index of a GFP-peptide fusion (GPS, HEK-293T) (PSI 1-6); higher = more stable;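 further: lentivirally expressed fusions sorted by FACS into six bins by GFP to DsRed ratio, PSI derived from sequencing read proportions per bin multiplied by bin number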
- MEASUREMENT_CONDITIONS: c terminus: native
MEASURED_METRIC: protein stability index

1) S13G 4.41
2) T23L 1.96
3) T23W 3.79
4) P14R 4.48
5) G8P 3.5
6) G8V 3.31
7) Y1E 3.92
8) R22S 3.5
9) Y12F 3.7
10) R11H 3.22
11) Y12D 4.38
12) R18M 2.87
13) R22W 3.32
14) S2V 1.85
15) S9T 3.74
16) G8N 3.7
17) R15D 3.16
18) S19Y 3.96
19) S17P 4.19
20) R5E 3.54
21) P10S 4.35
22) R11Q 4.39
23) R20M 3.4
24) R11I 2.73
25) Y12C 3.61
26) Y12A 3.89
27) R5F 2.52
28) P3V 4.06
29) P14T 3.89
30) G8I 3.46
